IC50 values recorded for Wee1-like protein kinase (Homo sapiens, UniProt P30291)
MEASURE: IC50

- MOLECULE: "CC1(N)CCN(c2ccc(Nc3ncc(-c4cnco4)c(-c4cc5ccc(CO)cc5o4)n3)cc2)CC1"
  REPORTED MEASUREMENT: "13.5 nM"
- MOLECULE: "CN1CCN(c2ccc(Nc3ncc(-c4cncs4)c(-c4cc5ccccc5o4)n3)cc2)CC1"
  REPORTED MEASUREMENT: "2.3 nM"
- MOLECULE: "CN1CCN(c2ccc(Nc3ncc(-c4cncs4)c(-c4cnc(N5CC[C@H](O)C5)s4)n3)cc2)CC1"
  REPORTED MEASUREMENT: "4.2 nM"
- MOLECULE: "CN1CCN(c2ccc(Nc3ncc(-c4cnco4)c(-c4cnc(N5CC[C@H](O)C5)s4)n3)cc2)CC1"
  REPORTED MEASUREMENT: "20.9 nM"
- MOLECULE: "CC1(N)CCN(c2ccc(Nc3ncc(-c4cnco4)c(-c4cc5ccccc5o4)n3)cc2)CC1"
  REPORTED MEASUREMENT: "13.5 nM"
- MOLECULE: "COc1cc(Nc2ncc(-c3cncs3)c(-c3cnc(N4CC(O)C4)s3)n2)ccc1N1CCN(C)CC1"
  REPORTED MEASUREMENT: "3.7 nM"
- MOLECULE: "COc1cc(Nc2ncc(-c3cnco3)c(-c3cnc(N4CC[C@H](F)C4)s3)n2)ccc1N1CCN(C)CC1"
  REPORTED MEASUREMENT: "2.5 nM"
- MOLECULE: "C=CCn1c(=O)c2cnc(Nc3ccc(N4CCN(C)CC4)cc3)nc2n1-c1ccc2c(n1)[C@@](O)(CC)CC2 [AZENOSERTIB]"
  REPORTED MEASUREMENT: "1.3 nM"
- MOLECULE: "CC1(N)CCN(c2ccc(Nc3ncc(-c4cnco4)c(-c4cnc(N5CC(O)C5)s4)n3)cc2)CC1"
  REPORTED MEASUREMENT: "33.7 nM"
- MOLECULE: "CN1CCN(c2ccc(Nc3ncc(-c4cncs4)c(-c4cnc(N5CC[C@H](F)C5)s4)n3)cc2)CC1"
  REPORTED MEASUREMENT: "1.8 nM"

Taken from ChEMBL document CHEMBL6127101.
